biological target: human recombinant CBL-b (human Biotin CBL-b recombinant protein a.a. 39-426) (Homo sapiens, UniProt Q13191); construct: human Biotin CBL-b recombinant protein a.a; 39-426; Biotin (biotinylated); assay: Biochemical assay for CBL-b inhibition (ligand displacement TR-FRET); details: 50 nM CBL-b, 0.3 μM Bodipy FL-Probe, read-out: IC50 (CBL-b inhibition, group)
Sequence (Q13191 39-426): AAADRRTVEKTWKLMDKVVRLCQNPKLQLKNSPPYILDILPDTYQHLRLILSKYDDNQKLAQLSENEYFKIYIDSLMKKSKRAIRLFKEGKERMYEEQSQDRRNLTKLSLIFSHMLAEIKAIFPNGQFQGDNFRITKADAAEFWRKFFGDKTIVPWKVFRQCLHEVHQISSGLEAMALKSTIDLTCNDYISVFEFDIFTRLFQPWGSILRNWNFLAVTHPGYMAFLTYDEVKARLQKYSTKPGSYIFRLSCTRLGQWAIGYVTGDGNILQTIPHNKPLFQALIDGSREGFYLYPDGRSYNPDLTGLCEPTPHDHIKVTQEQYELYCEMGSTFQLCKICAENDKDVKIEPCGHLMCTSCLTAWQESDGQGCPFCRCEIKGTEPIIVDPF
pIC50: −log10 of the molar value.
Collected pIC50 values appear next to each entry.

Worked examples, 3 molecules total:
[
  {
    "Molecule": "C[C@H]1CCCN(Cc2cc(N3Cc4ccc(C5(Cc6nncn6C)COC5)cc4C3=O)cc(C(C)(C)C)c2)C1",
    "Result": "6.52 to 7.10"
  },
  {
    "Molecule": "Cn1cnnc1CC1(c2ccc3c(c2)C(=O)N(c2cc(CN4CCC5(CC5)C4)cc(Cl)n2)C3)COC1",
    "Result": "6.52 to 7.10"
  },
  {
    "Molecule": "Cn1cnnc1CC1(c2ccc3c(c2)C(=O)N(c2cc(CNCC4CCC4)cc(Cl)n2)C3)COC1",
    "Result": "> 7.10"
  }
]

Using the record for `C[C@@H]1C[C@H](C)CN(Cc2cc(N3Cc4ccc(C5(Cc6nncn6C)COC5)cc4C3=O)nc(C(F)(F)F)c2)C1` , state its measured pIC50.
> 7.10

Using the record for `C[C@H]1CCCN(Cc2cc(CC3CC3)cc(N3Cc4ccc(C5(Cc6nncn6C)COC5)cc4C3=O)c2)C1` , state its measured pIC50.
6.52 to 7.10

Using the record for `C[C@H]1CCCN(Cc2cc(Cl)cc(N3Cc4ccc(C5(Cc6nncn6C)COC5)cc4C3=O)c2)C1` , state its measured pIC50.
> 7.10

Using the record for `Cn1cnnc1-c1ccccc1-c1ccc2c(c1)C(=O)N(c1cc(CNCCC(F)(F)F)cc(Cl)n1)C2` , state its measured pIC50.
> 7.10

Using the record for CC1CCC(C)N(Cc2cc(N3Cc4ccc(C5(Cc6nncn6C)COC5)cc4C3=O)nc(C(F)(F)F)c2)C1 (single isomer, unassigned) [Compound 141] , state its measured pIC50.
> 7.10

Using the record for `C[C@@H]1C[C@H](C)CN(Cc2cc(Cl)nc(N3Cc4ccc(C5(Cc6nncn6C)COC5)cc4C3=O)c2)C1` , state its measured pIC50.
> 7.10

Using the record for Cn1cnnc1CC1(c2ccc3c(c2)C(=O)N(c2cc(CN4CCCC(O)CC4)cc(Cl)n2)C3)COC1 (centres unmarked) , state its measured pIC50.
6.52 to 7.10

Using the record for `Cc1cc(CNCC2CC2)cc(N2Cc3ccc(-c4cc(Cl)ccc4-c4nncn4C)cc3C2=O)n1` , state its measured pIC50.
5.30 to 6.52

Using the record for C[C@H](Cc1nncn1C)c1ccc2c(c1)C(=O)N(c1cc(CNCC3CC3)cc(Cl)n1)C2 (single isomer, unassigned) , state its measured pIC50.
> 7.10

Using the record for Cc1cc(CNCC2CCO2)cc(N2Cc3ccc(-c4ccc(F)cc4-c4nncn4C)cc3C2=O)n1 (centres unmarked) , state its measured pIC50.
> 7.10

Using the record for `C[C@H]1CCN(Cc2cc(N3Cc4ccc(C5(Cc6nncn6C)COC5)cc4C3=O)nc(C(F)(F)F)c2)C1` , state its measured pIC50.
6.52 to 7.10
